Target: NaV1.7 (Homo sapiens (Human))
Sequence (Q15858 whole entry): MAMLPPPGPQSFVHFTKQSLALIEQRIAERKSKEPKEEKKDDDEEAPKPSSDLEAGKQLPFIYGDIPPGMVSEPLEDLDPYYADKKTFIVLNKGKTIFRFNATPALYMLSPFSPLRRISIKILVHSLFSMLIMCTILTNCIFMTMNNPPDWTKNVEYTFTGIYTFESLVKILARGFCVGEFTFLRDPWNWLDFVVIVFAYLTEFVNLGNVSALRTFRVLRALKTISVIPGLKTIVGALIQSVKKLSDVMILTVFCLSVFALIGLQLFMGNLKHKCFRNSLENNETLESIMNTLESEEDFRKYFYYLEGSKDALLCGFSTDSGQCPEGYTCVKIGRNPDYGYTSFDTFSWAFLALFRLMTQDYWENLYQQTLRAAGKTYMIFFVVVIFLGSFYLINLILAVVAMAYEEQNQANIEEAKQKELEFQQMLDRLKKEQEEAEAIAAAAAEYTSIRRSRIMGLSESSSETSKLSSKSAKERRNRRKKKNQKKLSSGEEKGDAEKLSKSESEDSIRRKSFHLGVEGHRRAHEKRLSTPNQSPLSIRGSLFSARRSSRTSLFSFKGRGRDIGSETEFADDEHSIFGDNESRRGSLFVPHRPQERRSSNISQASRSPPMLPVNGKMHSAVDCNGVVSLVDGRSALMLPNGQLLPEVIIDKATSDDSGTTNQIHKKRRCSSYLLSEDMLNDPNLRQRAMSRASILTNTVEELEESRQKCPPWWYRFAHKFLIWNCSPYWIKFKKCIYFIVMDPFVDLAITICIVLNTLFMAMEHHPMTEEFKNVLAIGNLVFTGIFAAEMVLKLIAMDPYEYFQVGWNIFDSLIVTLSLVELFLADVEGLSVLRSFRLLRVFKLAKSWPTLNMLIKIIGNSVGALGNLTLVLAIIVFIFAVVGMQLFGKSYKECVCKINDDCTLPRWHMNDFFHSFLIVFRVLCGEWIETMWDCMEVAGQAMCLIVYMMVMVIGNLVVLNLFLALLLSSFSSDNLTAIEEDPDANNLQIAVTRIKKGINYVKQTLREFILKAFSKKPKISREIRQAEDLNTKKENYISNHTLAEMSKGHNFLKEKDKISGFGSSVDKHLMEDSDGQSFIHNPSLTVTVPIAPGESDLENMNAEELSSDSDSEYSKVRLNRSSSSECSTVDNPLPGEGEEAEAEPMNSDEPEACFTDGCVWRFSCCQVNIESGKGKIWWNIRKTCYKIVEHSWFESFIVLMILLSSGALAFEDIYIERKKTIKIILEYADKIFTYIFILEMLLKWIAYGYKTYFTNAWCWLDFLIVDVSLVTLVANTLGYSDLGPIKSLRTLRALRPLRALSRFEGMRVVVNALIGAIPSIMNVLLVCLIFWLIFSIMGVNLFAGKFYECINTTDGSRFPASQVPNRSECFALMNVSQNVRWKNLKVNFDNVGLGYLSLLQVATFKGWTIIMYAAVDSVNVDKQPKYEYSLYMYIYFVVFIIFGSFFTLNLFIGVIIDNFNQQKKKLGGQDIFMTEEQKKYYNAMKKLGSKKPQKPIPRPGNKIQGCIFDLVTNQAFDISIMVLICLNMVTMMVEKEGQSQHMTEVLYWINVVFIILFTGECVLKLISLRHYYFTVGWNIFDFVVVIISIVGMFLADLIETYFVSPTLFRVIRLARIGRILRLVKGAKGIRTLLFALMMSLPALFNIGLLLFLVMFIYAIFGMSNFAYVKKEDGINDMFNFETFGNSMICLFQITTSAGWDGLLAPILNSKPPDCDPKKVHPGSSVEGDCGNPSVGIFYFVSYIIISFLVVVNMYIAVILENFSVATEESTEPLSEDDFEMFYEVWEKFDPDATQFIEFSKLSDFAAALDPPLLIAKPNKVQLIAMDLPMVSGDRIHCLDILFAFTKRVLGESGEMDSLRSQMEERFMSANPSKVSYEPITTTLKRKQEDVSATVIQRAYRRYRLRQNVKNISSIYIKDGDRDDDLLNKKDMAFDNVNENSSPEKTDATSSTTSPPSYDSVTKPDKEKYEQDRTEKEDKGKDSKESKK
Assay: Automated electrophysiology, IonWorks Barracuda population patch clamp, NaV1.7 current (inactivated-state protocol)
Conditions: HEK 293 cells expressing NaV1.7; 600 sec compound incubation; read-out: NaV1.7 Barra IC50
Description: Automated Electrophysiology: Ion Works Barracuda population patch clamp (PPC). […] Calculated leak current was digitally subtracted from the total cell NaV1.7 current for each sample point acquired. NaV1.7 currents were elicited by a voltage clamp protocol designed to bias the NaV1.7 channels to their inactivated state as follows. […] Compounds were incubated for 600 sec between the pre- and post-compound reads. […]
// values below are reported pIC50
In plain terms, pIC50 is the concentration in mol/L turned into minus its base-10 logarithm.

In the examples that follow, each entry is paired with its recorded pIC50.
- substance smiles: "Cn1cc(-c2ccc(C(F)(F)F)cc2)c2cc(F)c(C(=O)NS(=O)(=O)C3CC3)cc21"
  pIC50: 7.80
- substance smiles: "CC(C)COc1ccc(-c2cn(C)c3cc(C(=O)NS(C)(=O)=O)ccc23)cc1"
  pIC50: 6.28

Request: Param item = CC(C)COc1ncc(-c2cn(C)c3cc(C(=O)NS(=O)(=O)C(C)C)ccc23)cc1Cl ; retrieve measured pIC50.
Response: 6.34

Request: Param item = CC(C)COc1ncc(-c2cn(C)c3cc(C(=O)NS(=O)(=O)N(C)C)ccc23)cc1Cl ; retrieve measured pIC50.
Response: 5.89

Request: Param item = Cn1cc(-c2ccc(C(F)(F)F)cc2)c2ccc(C(=O)NS(=O)(=O)C3CC3)cc21 ; retrieve measured pIC50.
Response: 6.96
